# reported Papp; entries follow
test: Permeability by PAMPA; format: ADME; settings: read-out: permeability
Express your answer in ×10⁻⁶ cm/s, writing the number without its unit.

Solved entries (count: 2):
# CHEM SMILES, UNIT, Papp
records = [
    ("Clc1ncn2c1Cn1ncnc1-c1cc(Br)ccc1-2", "×10⁻⁶ cm/s", 7),
    ("FC(F)c1ncn2c1Cn1ncnc1-c1cc(Cl)ccc1-2", "×10⁻⁶ cm/s", 6.3),
]

[in] Any idea what Papp was measured for Cc1ncn2c1Cn1ncnc1-c1cc(Cl)ccc1-2 ?
[out] 8.9

[in] Bench note: what Papp did Cc1ncn2c1Cn1ncnc1-c1cc(Br)ccc1-2 show?
[out] 7.6

[in] Given the molecule Clc1ccc2c(c1)-c1ncnn1Cc1c(Cl)ncn1-2 , what is its reported Papp?
[out] 6.5

[in] I'd like to know its Papp. The molecule in question is FC(F)c1ncn2c1Cn1ncnc1-c1cc(Br)ccc1-2
[out] 7

###

test system: HEK293; assay: Selectivity ratio of Ki for cloned human GABA alpha-2-beta-3-gamma-2 receptor expressed in HEK293 cells to Ki for cloned human GABA alpha-5-beta-3-gamma-2 receptor expressed in HEK293 cells; format: cell-based
METRIC NAME: Ratio Ki

# CHEM SMILES, Ratio Ki
measured = [
    ("Clc1ncn2c1Cn1ncnc1-c1cc(C3CC3)ccc1-2", 15),
]

[in] Could you share which Ratio Ki value was measured for Clc1ccc2c(c1)-c1ncnn1Cc1c(C3CC3)ncn1-2 ?
[out] 7

[in] Please look up its Ratio Ki: Cc1ncn2c1Cn1ncnc1-c1cc(C(F)(F)F)ccc1-2
[out] 78

[in] Data request, read-out Ratio Ki, for O=C(Nc1ccc2c(c1)-c1ncnn1Cc1c(Cl)ncn1-2)C1CC1
[out] 6

[in] Tell me the measured Ratio Ki of Cc1ncn2c1Cn1ncnc1-c1c(F)cccc1-2 , please.
[out] 13

###

pKi values, listed per item
Biological target: GABA-A receptor; alpha-5/beta-3/gamma-2 (Homo sapiens, UniProt P18507+P28472+P31644)
Sequence (P18507 whole entry): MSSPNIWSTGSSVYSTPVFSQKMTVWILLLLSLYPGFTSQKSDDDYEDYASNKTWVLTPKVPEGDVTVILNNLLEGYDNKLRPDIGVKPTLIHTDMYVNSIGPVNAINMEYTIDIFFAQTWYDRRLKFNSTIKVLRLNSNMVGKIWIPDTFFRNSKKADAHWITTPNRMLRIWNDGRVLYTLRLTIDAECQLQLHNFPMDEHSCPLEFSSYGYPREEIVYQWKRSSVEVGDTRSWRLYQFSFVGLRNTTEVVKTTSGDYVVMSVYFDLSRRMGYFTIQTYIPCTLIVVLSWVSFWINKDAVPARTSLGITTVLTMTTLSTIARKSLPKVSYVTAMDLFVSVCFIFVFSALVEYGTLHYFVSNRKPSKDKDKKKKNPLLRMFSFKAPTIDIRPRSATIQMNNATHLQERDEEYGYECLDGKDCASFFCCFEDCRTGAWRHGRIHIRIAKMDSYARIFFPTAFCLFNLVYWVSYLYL
Sequence (P28472 whole entry): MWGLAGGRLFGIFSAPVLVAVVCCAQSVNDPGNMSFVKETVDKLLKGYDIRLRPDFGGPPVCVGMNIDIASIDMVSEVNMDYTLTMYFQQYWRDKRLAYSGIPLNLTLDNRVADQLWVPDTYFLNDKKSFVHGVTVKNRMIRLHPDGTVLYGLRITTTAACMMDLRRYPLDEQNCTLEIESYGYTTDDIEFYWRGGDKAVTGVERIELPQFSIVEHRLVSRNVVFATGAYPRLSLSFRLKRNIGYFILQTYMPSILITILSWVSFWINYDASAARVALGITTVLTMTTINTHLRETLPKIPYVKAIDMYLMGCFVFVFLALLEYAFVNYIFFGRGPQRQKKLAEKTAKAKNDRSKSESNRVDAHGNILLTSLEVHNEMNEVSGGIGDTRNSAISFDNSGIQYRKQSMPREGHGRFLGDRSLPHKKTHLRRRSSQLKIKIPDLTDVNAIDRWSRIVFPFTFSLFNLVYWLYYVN
Sequence (P31644 whole entry): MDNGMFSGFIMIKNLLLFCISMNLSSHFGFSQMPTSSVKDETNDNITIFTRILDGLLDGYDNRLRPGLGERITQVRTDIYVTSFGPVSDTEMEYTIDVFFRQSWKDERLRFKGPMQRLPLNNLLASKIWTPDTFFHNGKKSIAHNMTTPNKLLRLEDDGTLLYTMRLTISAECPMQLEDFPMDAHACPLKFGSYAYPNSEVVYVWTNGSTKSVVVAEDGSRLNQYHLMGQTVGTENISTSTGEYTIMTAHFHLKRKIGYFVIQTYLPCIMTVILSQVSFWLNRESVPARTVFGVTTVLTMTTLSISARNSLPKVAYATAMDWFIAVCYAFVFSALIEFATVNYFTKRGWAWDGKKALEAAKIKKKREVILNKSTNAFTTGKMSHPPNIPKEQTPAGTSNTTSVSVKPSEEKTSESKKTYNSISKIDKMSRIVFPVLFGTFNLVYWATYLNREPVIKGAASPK
Assay: Displacement of [3H]Flumazenil from human GABA alpha-5-beta-3-gamma-2 receptor expressed in insect SF9 cells
In plain terms, pKi is the concentration in mol/L turned into minus its base-10 logarithm.

Take a look at these entries with their results.
# CHEM SMILES, pKi
measured = [
    ("CCOC(=O)c1ncn2c1Cn1ncnc1-c1cc(F)ccc1-2", 9.70),
    ("CCC(=O)c1ncn2c1Cn1ncnc1-c1cc(Cl)ccc1-2", 8.59),
    ("Fc1ccc2c(c1)-c1ncnn1Cc1cncn1-2", 8.00),
    ("N#Cc1ncn2c1Cn1ncnc1-c1cc(Cl)ccc1-2", 8.19),
]

Let us move to another entry and its pKi.
[in] Find pKi (GABA-A receptor; alpha-5/beta-3/gamma-2 (Homo sapiens, UniProt P18507+P28472+P31644)) for the entry Fc1ccc2c(c1)-c1ncnn1Cc1c(Cl)ncn1-2
[out] 9.52
